- Tested on: HCT-116
- Protocol notes: Antiproliferative activity against human HCT-116 cells assessed as reduction in cell viability incubated for 48 hrs by MTT assay
- Type: functional, cell-based
- Condition notes: HCT-116, 48 h
Parameter: pIC50. Scope: all listed entries.
Would you please state pIC50, meaning minus log10 of the concentration in mol/L, as a bare number?

Would you please look over these solved cases?
pIC50 measured on COc1cc(C2=NC2c2ccc3ccccc3c2)cc(OC)c1OC (stereo unspecified) = 5.39

pIC50 measured on COc1ccc(C2N=C2c2cc(OC)c(OC)c(OC)c2)cc1 (stereo unspecified) = 5.96

pIC50 measured on "COc1ccc([C@H]2N=C2c2cc(OC)c(OC)c(OC)c2)cc1F" = 6.24

pIC50 measured on COc1cc(C2=NC2c2ccc3c(c2)OCO3)cc(OC)c1OC (stereo unspecified) = 5.72

pIC50 measured on CCOc1ccc(C2=NC2c2cc(OC)c(OC)c(OC)c2)cc1 (stereo unspecified) = 6.30

pIC50 measured on COc1cc(C2N=C2c2ccccc2)cc(OC)c1OC (stereo unspecified) = 5.69

Others:
pIC50 measured on COc1cc(C2N=C2c2ccc3ccccc3c2)cc(OC)c1OC (stereo unspecified) = 5.65

pIC50 measured on COc1ccc(C2=NC2c2cc(OC)c(OC)c(OC)c2)cc1F (stereo unspecified) = 6.49

pIC50 measured on COc1cc(C2N=C2c2ccc3c(c2)OCO3)cc(OC)c1OC (stereo unspecified) = 6.01

pIC50 measured on COc1ccc(C2C(c3cc(OC)c(OC)c(OC)c3)N2C)cc1F (stereo unspecified) = 5.26

pIC50 measured on COc1ccc(C2=NC2c2cc(OC)c(OC)c(OC)c2)cc1OC (stereo unspecified) = 4.91
